- Test system: Diamondback Moth (Plutella xyloxtella)
- METHOD_SUMMARY: Control of diamondback moth on cabbage by soil treatment, number of parasitic insects
- Type: in vivo
- SETTINGS: 5 mg ai/hill, soil incorporation, 21 days after transplanting
- Excerpt: Test for the Control of Diamondback Moth (Plutella xyloxtella) and Aphid on Cabbage by Soil Treatment A granular preparation was mixed into bed soil, and the mixture was filled into a cell seedling box and sown with seeds of cabbage (variety: YR Seitoku). […] Twenty one days after the transplanting (in the middle of June), the number of parasitic insects was counted on 30 hills in the case of diamondback moth and on 10 hills in the case of aphid.
METRIC: Number of parasitic insects per 30 hills, Diamondback moth
Please state the value as a number alone, without comment.

INSERT INTO results (compound, observed) VALUES
  ('Cc1cc(C(F)(F)C(F)(F)F)ccc1NC(=O)c1cccc(Cl)c1C(=O)NC(C)C [Compound 19]', 1),
  ('Cc1cc(C(F)(F)F)ccc1NC(=O)c1cccc(I)c1C(=O)NC(C)C [Compound 40]', 2),
  ('Cc1cc(OC(F)(F)F)ccc1NC(=O)c1cccc(Cl)c1C(=O)NC(C)C [Compound 20]', 4);

Reported Number of parasitic insects per 30 hills, Diamondback moth for Cc1cc(C(F)(F)C(F)(F)F)ccc1NC(=O)c1cccc(I)c1C(=O)NC(C)C [Compound 41] was 3

Reported Number of parasitic insects per 30 hills, Diamondback moth for Cc1cc(C(F)(F)C(F)(F)C(F)(F)F)ccc1NC(=O)c1cccc(I)c1C(=O)NC(C)C [Compound 42] was 3

Reported Number of parasitic insects per 30 hills, Diamondback moth for CC(C)NC(=O)c1c(I)cccc1C(=O)Nc1ccc(C(F)(F)F)cc1Cl [Compound 39] was 3

Recorded values, source patent US20150250167A1.
